What melting point was measured for each of the following?

*Q* State its melting point: Clc1ccc(/C=C/C2=CCN(Cc3ccccc3)CC2)cn1
*A* 126 to 128 °C

*Q* Answer with the recorded melting point for the compound listed here: CC1(C)CC(=O)c2cc(OCc3ccccc3)ccc2O1
*A* 105 to 107 °C

*Q* Return the recorded melting point value; entry: CCOC(=O)CCNC(=O)n1nc(Oc2c(Cl)cc(C(F)(F)F)cc2Cl)cc1C
*A* 73 to 74 °C

Return reported melting point values for all items listed beneath this line.
1. O=C(CCCCCl)Nc1nnc(SCc2ccccc2)s1
2. CC(C)c1ccc(NC(=O)OC(C)(C)C)c(C(=O)NCC2CCN(C(c3ccccc3)c3ccccc3)CC2)c1
3. c1cn(-c2nc(N3CCOCC3)nc(-n3ccnc3)n2)cn1
4. CCOC(=O)NNC(=O)NCCC(=O)OC
5. Cc1nc(C)c(-c2ccnc(Nc3ccc(NC(=O)CCl)cc3)n2)s1

*A*
1: 145 to 148 °C; 2: 88 to 90 °C; 3: 268 to 270 °C; 4: 105 to 107 °C; 5: 217 to 219 °C

Could I get melting point for every one of these entries?
1. CCOCc1nc2c(N)nc3ccccc3c2n1CC1(N)CCCCC1
2. Cc1c(C(=O)Nc2ccc(N3CCCCC3)c(C#N)c2)cnn1C
3. CCOC(=O)c1c(C)nc(N2CCNCC2)nc1N1CCS(=O)(=O)CC1
4. O=C1CCC(CO)N1OCc1ccccc1 (stereo unspecified)
5. CCc1ccc(OCCCN2CCN(c3ccc(Cl)nn3)CC2)cc1
6. Cc1nc(CN(C)C(=O)N[C@H](C(=O)N[C@@H](Cc2ccccc2)[C@@H](O)C[C@H](Cc2ccccc2)NC(=O)OCc2cccnc2)C(C)C)cs1
7. OC(CNCCc1ccsc1)c1ccccc1 (stereo unspecified)
8. CCCCCCC(C)Oc1ccc(-c2ccc(C(C)=O)cc2)cc1F (stereo unspecified)

*A*
1. 166 to 168 °C
2. 217 to 218 °C
3. 154 to 159 °C
4. 121 to 123 °C
5. 123 to 125 °C
6. 66 to 69 °C
7. 75 °C
8. 67.6 to 68.5 °C

Dear colleague, could you send me melting point for each of the items below? Thanks.
1. CN(C)CC1(C2(O)CCCCC2)Cc2cc3ccn(C)c3cc21 (stereo unspecified)
2. CSc1sc(C(C)=O)cc1[N+](=O)[O-]
3. Cc1cncc(C)c1-c1c(C)cc(N)cc1C
4. CN1CCN(c2c(F)cc3c(=O)c(C(=O)O)cn(C4CSC4)c3c2F)CC1
5. CC(C)Cn1c(=O)n(C)c(=O)c2c(S(=O)(=O)N3CC[C@@H](O)C3)c(Cc3cccnc3)sc21
6. CC#CCOc1ccc(S(=O)(=O)N(Cc2cccnc2)C(CSCc2ccccc2)C(=O)NO)cc1 (stereo unspecified)
7. CCCC(C(=O)N(C)C)n1cc(Cl)c(-c2ccccc2)n1 (stereo unspecified)

*A*
148 to 150 °C
191 to 193 °C
134 to 135 °C
204 to 206 °C
161 to 162 °C
74 to 78 °C
85 to 87 °C

----------
Measured metric: melting point

Examples with answers:
*Q* Given the molecule COc1ccc(C(=O)NCCc2ccc(-c3ccc(O)cc3)cc2)c(OC)c1 , write its reported melting point.
*A* 190 °C

*Q* State its melting point: Cc1cc(CO)nc(Nc2ccccc2)n1
*A* 118 to 120 °C

*Q* Using the record for COc1cc(N)c(C)cc1N=Nc1ccc([N+](=O)[O-])cc1 , state its measured melting point.
*A* 136 to 137 °C

*Q* Let me know recorded melting point for CCCN1CCC(C(=O)Nc2ccc(CN(C)C3CCOCC3)cc2)=Cc2cc(Br)ccc21 , thanks.
*A* 134 to 136 °C

*Q* Identify measured melting point associated with CCOc1nn(Cc2ccc(OC3CCN(c4ccccn4)CC3)cc2)cc1CCC(=O)O
*A* 142 to 143 °C

*Q* Give the measured melting point for O=[N+]([O-])c1ccc(Cl)nc1N1CCNCC1
*A* 50 to 53 °C

*Q* Supply measured melting point of Clc1ccc2c(c1)N=C(NCCc1cccnc1)c1ccccc1N2 in your reply.
*A* 195 to 196 °C

*Q* Provide melting point value for the following molecule: COC(=O)N1CCc2ccc3cc[nH]c3c2CC1
*A* 169 to 171 °C

Batch request: melting point per item, same order as input.
1. CC(C)(C)c1cc(/C=C/C(=O)CC(=O)/C=C/c2cc(C(C)(C)C)c(O)c(C(C)(C)C)c2)cc(C(C)(C)C)c1O
2. Cc1nc2cnccc2o1
3. Cc1cc2c(s1)C(C(=O)O)CC2 (stereo unspecified)
4. CCOC(=O)C(=O)Nc1ccc2c(=O)n3c(nc2c1)C(=Cc1ccc(OC)cc1OC)CC3
5. COc1cc(N2CCC(N3CCCN(C)CC3)CC2)ccc1Nc1ncc2ccc(-c3ccccc3OC)n2n1
6. O=C1c2ccccc2C(O)(c2ccccc2)N1CCc1ccccc1F (stereo unspecified)
7. O=[N+]([O-])c1ccc(N2CCCNCC2)cc1

*A*
192 to 196 °C
56 to 58 °C
105 to 107 °C
285 to 288 °C
69 to 76 °C
208 °C
115 to 116 °C

Quick batch: melting point for everything below.
1. Cn1c(-c2ccccc2)c2c(c(C#N)c1=O)-c1ccccc1C2=O
2. Cc1nc(N2CCN(CC3CC3)C2=O)sc1C(N)=O
3. C=CCOC(=O)NC(C)(C)c1ccc(-c2nc(Nc3ccc(CCn4ccnc4)cc3)ncc2Cl)cc1F
4. COc1cc2cnnc(N3CCCC(CO)C3)c2cc1OC (stereo unspecified)
5. COC(=O)CON1C(=O)c2ccccc2C1=O
6. C#CC(CCCCC)OC(c1ccccc1)(c1ccccc1)c1ccccc1 (stereo unspecified)

*A*
255 to 256 °C
198 to 200 °C
88 °C
162 to 165 °C
137 to 142 °C
65 to 66.5 °C

----------
Give melting point for every item shown.

*Q* Identify measured melting point associated with COC(=O)COc1cccc2c(CCBr)coc12
*A* 58 to 59 °C

*Q* Tell me melting point reported for Cn1c(=O)n(-c2ccnc(N)c2)c2ccccc21
*A* 204 to 205 °C

*Q* Kindly indicate its recorded melting point. Item: Cc1c(-c2ccc3oc(SCc4ccccn4)nc3c2)nc2ccccn12
*A* 116 to 118 °C

Could you tell me melting point for each of these compounds? They are listed below.
1. CCOC(=O)c1cn(-c2nc(N)c(F)cc2C)c2c(Cl)c(F)c(F)cc2c1=O
2. COC(=O)c1ccc2c(c1)NC(=O)c1cccnc1N2

*A*
198 to 202 °C
344 to 349 °C

----------
Provide the recorded melting point for the entries that follow.

// solved cases for melting point follow
*Q* Give melting point for the following molecule: COC(=O)c1ccc2oc(-c3ccccc3OC(C)C)cc(=O)c2c1
*A* 154 to 155 °C

*Q* Give recorded melting point. CCCC(=O)c1cc2c(=O)cc(C(=O)O)[nH]c2c(C)c1C
*A* 267 to 269 °C

*Q* Retrieve melting point measured for CNC(=O)c1ccc(C)c(-n2c(C)cc(OCc3ccc(F)cc3CNC(=O)Nc3cc(C(C)(C)C)nn3-c3ccc(O)c(Cl)c3)c(Cl)c2=O)c1 and print it.
*A* 177 to 180 °C

*Q* Input COc1cc(OC)c2c(=O)[nH]c(-c3ccccn3)nc2c1 , output reported melting point.
*A* 215 to 217 °C

# input for lookup
*Q* Given CCn1cnc2c(Nc3cccc(C(=O)OC)c3)nc(Cl)nc21 , respond with its melting point.
*A* 148 °C

----------
Hi there, I'd appreciate the recorded melting point for every entry that follows.

Would you please look over these solved cases?
*Q* Kindly indicate its recorded melting point. Item: CNC(=S)n1nc(Oc2ncc(C(F)(F)F)cc2Cl)cc1C
*A* 63 to 65 °C

*Q* Using known records, supply melting point for CCCn1c(=O)c2[nH]c(-c3cc(C)n(CC(=O)Nc4ccc(Br)cc4)n3)nc2n(CCC)c1=O
*A* 270 to 273 °C

*Q* Report measured melting point; entry is CNC(=O)c1cc2nc(C(F)(F)F)ccc2c(OC)c1NC(=O)c1cc(C(F)(F)F)nn1-c1ncccc1Cl
*A* 209 to 211 °C

*Q* Specify reported melting point for the compound shown: Cc1ccn(-c2ccc(C(=O)N3Cc4cccnc4Nc4ccccc43)c(F)c2)n1
*A* 122 to 125 °C

*Q* Hello, please tell me recorded melting point for this one: O=C(Nc1ccc(C(=O)c2ccccc2)cc1)c1ccc(-c2ccccc2)cc1
*A* 212 to 213 °C

*Q* Specify measured melting point for N#CC(C(=O)Nc1ccc(S(=O)(=O)C(F)(F)F)cc1)=C(O)C1CC1 .
*A* 168 to 170 °C

Consider the following items and state reported melting point for each.
1. C#CC(CC(=O)O)c1ccc(OC)c(OC2CCCC2)c1 (racemic)
2. Nc1nc(-c2cc(Cl)ccc2Cl)nc(N2CCN(c3ccccc3)CC2)n1
3. CN(SC(Cl)(Cl)Cl)C(=O)ON=C1SCC(=O)NC1(C)C

*A*
["101 to 102 °C", "203 to 206 °C", "189 to 190 °C"]

Hello, the source for this data is a melting point compilation (Tetko et al.; mined from patent text by program, amines drawn as free bases though some values may be those of a salt), in case you need it.
